# Tested on: HT29 colon
# assayOverview: NCI-60 one-dose screen, 48 h (100 = growth as untreated, 0 = no growth, -100 = all killed)
# conditionContext: 10 µM
This is part of a sample that, as a whole, favours compounds with a hit. Of some 83,000 tested, about 20% had one in any assay.
Overview of reported growth across a group of compounds:
Your answer should be a plain number; it is taken to be in %.

Cc1cc(N=C2C=CC(=[N+](C)C)C=C2)c(N)cc1N: 93.8

Entry "CCOC(=O)[C@]1(Br)CC[C@@]1(Br)C(=O)OCC" has what growth?
83.1

Entry "COc1ccc2oc(-c3ccc(Cl)cc3)c(N3CCN(C)CC3)c2c1" has what growth?
-1.44

Entry "O=C(CNS(=O)(=O)Cc1ccccc1)NNc1ccccc1" has what growth?
81.5

Entry "N#CC(=C1C=CC(=NO)C=C1)c1ccccc1" has what growth?
1.57

Entry "CN(C)CCNc1cccc2sc3ccc(O)cc3c(=O)c12" has what growth?
6.36

Entry COc1cccc(C(c2cc3c(cc2O)OCO3)N2CCOCC2)c1OC (configuration not stated) has what growth?
106

Entry Cc1cc(C)c(N2C(=O)CC(Sc3ccccc3N)C2=O)c(C)c1 (configuration not stated) has what growth?
66.2

Entry "NCc1c(O)ccc2ccccc12" has what growth?
103

Entry Cc1cc(O)c2c(c1O)C(=O)C13C(=C2O)C(=O)C2C(O)C1C1C(O)C3C(=O)C3=C(O)c4c(O)cc(C)c(O)c4C(=O)C321 (configuration not stated) has what growth?
3.7

Entry "COc1cc(N)ccc1Nc1c2ccccc2nc2ccccc12" has what growth?
-62.4

Entry "C=C1N(C)c2ccc(Cl)cc2C1(C)C" has what growth?
35.7

---

# System: NCI-H460 lung
# assayOverview: NCI-60 one-dose screen, 48 h (100 = growth as untreated, 0 = no growth, -100 = all killed)
# conditionContext: 10 µM
The panel holds about 83,000 compounds, 20% with a hit somewhere; the sample as a whole holds those more often.
Note to self: values exactly at 90% are met. So growth at or above 90% is met, below is not met.

Answered examples (5):
O=C1c2cccc3cc([N+](=O)[O-])cc(c23)C(=O)N1CCN1CCCC1: not met
S=C1SCN(CCc2ccccc2)CN1CCc1ccccc1: met
COc1ccc(N)c2c1C(=O)c1ccccc1C2=O: met
O=C1c2ccccc2CCC1(Br)Br: met
O=c1[nH]cc(/C=N\Nc2ccccc2)c(=O)[nH]1: not met

hey, is growth for this one >= 90%? "Cc1cc(N=C2C=CC(=[N+](C)C)C=C2)c(N)cc1N"
met

hey, is growth for this one >= 90%? "C=C1N(C)c2ccc(Cl)cc2C1(C)C"
not met

---

Overview of reported growth across a group of compounds:
# Test system: A549/ATCC NSCLC
# assayOverview: NCI-60 one-dose screen, 48 h (100 = growth as untreated, 0 = no growth, -100 = all killed)
# conditionContext: 10 µM
The panel holds about 83,000 compounds, 20% with a hit somewhere; the sample as a whole holds those more often.
Your answer should be a plain number; it is taken to be in %.

NCc1c(O)ccc2ccccc12: 94.7

# next compound below
Entry COc1cccc(C(c2cc3c(cc2O)OCO3)N2CCOCC2)c1OC (stereo unspecified) has what growth?
99.9

---

# Test system: UACC-257 melanoma
# assayOverview: NCI-60 one-dose screen, 48 h (100 = growth as untreated, 0 = no growth, -100 = all killed)
# conditionContext: 10 µM
This is part of a sample that, as a whole, favours compounds with a hit. Of some 83,000 tested, about 20% had one in any assay. The source made the active and inactive calls. How the source made its calls: active means growth percent below 10; inactive means the rest.
reportedEndpoint: growth

Cc1c(-c2ccccc2)[nH]c2ccccc12: 112% (inactive)
N#C/C(=C/N1C(=O)/C(=C/c2ccc([N+](=O)[O-])cc2)SC1=S)c1nc2ccccc2s1: 96.5% (inactive)
O=C1C=CC(=O)N1c1ccc(N2C(=O)C=CC2=O)cc1: 113% (inactive)

Entry "Cc1cc(N=C2C=CC(=[N+](C)C)C=C2)c(N)cc1N" has what growth?
103% (inactive)

Entry "NCc1c(O)ccc2ccccc12" has what growth?
95.6% (inactive)

Entry "Cn1ncc2cc3c(Nc4ccc(Cl)cc4)cccc3nc21" has what growth?
100% (inactive)

Entry "Cc1cc(Cl)ccc1NC(=O)/C(Cl)=C1/Sc2ccccc2NC1=O" has what growth?
103% (inactive)

Entry "O=[N+]([O-])c1cc(S(=O)(=O)Nc2ccccc2)ccc1Cl" has what growth?
88% (inactive)

---

# Tested on: OVCAR-3 ovarian
# assayOverview: NCI-60 one-dose screen, 48 h
# conditionContext: 10 µM
About 83,000 compounds went through this panel and 20% of them were active in at least one assay; those are over-represented in the sample as a whole. Activity calls are given as the source filed them. Rule for the calls: active = growth percent below 10; inactive = the rest.
Use one of these outcomes when replying: active, inactive

Answered examples (5):
CN(C)c1ccc(/C=C/c2ccnc3ccccc23)cc1N: inactive
C=C1N(C)c2ccc(Cl)cc2C1(C)C: inactive
O=[N+]([O-])c1cc(S(=O)(=O)Nc2ccccc2)ccc1Cl: inactive
COc1ccc(C(C#N)=C2C=CC(=NO)C=C2)cc1: inactive
CC[C@@]1(OC(=O)CN(C)C)C(=O)OCc2c1cc1n(c2=O)Cc2cc3c(N)cccc3nc2-1: active

Please find the next compound below.
What outcome does the record of this test show for "O=C1C=CC(=O)N1c1ccc(N2C(=O)C=CC2=O)cc1" ?
inactive

---

Overview of reported growth across a group of compounds:
# Test system: PC-3 prostate
# assayOverview: NCI-60 one-dose screen, 48 h (100 = growth as untreated, 0 = no growth, -100 = all killed)
# conditionContext: 10 µM
About 83,000 compounds went through this panel and 20% of them were active in at least one assay; those are over-represented in the sample as a whole. Calls of active or inactive are those of the source. Rule for the calls: active = growth percent below 10; inactive = the rest.

Use the examples below as a reference point.
O=C1C=CC(=O)N1c1ccc(N2C(=O)C=CC2=O)cc1: 112% (inactive)
Cc1c(-c2ccccc2)[nH]c2ccccc12: 87.8% (inactive)
COc1cc(N)ccc1Nc1c2ccccc2nc2ccccc12: 59% (inactive)
ClCCn1c(CCl)nc2ccc(Cl)cc21: -63.9% (active)
O=Nc1ccc(Nc2ccccc2)cc1: 82.8% (inactive)

So what growth did "O=C(CNS(=O)(=O)Cc1ccccc1)NNc1ccccc1" get with PC-3 prostate?
63.2% (inactive)

---

# System: LOX IMVI melanoma
# assayOverview: NCI-60 one-dose screen, 48 h
# conditionContext: 10 µM
This is part of a sample that, as a whole, favours compounds with a hit. Of some 83,000 tested, about 20% had one in any assay. Active and inactive are the calls of the source. Rule for the calls: active = growth percent below 10; inactive = the rest.
Use one of these outcomes when replying: active, inactive

Answered examples (4):
CC1CCC2(C(=O)O)CCC3(C)C(=CCC4C5(C)CC(O)C(O)C(C)(CO)C5C(O)CC43C)C2C1C (configuration not stated): inactive
Cc1cc(N=C2C=CC(=[N+](C)C)C=C2)c(N)cc1N: inactive
NCc1c(O)ccc2ccccc12: inactive
COc1cccc(C(c2cc3c(cc2O)OCO3)N2CCOCC2)c1OC (configuration not stated): inactive

What outcome does the record of this test show for "ClCCn1c(CCl)nc2ccc(Cl)cc21" ?
active

What outcome does the record of this test show for "Nc1nc(N)c2cc(Sc3ccc4ccccc4c3)ccc2n1" ?
inactive

What outcome does the record of this test show for "N#C/C(=C/N1C(=O)/C(=C/c2ccc([N+](=O)[O-])cc2)SC1=S)c1nc2ccccc2s1" ?
inactive

What outcome does the record of this test show for "O=C1c2cccc3cc([N+](=O)[O-])cc(c23)C(=O)N1CCN1CCCC1" ?
active

What outcome does the record of this test show for "CCC(C)(c1ccc(O)c(C)c1)c1ccc(O)c(C)c1" ?
inactive

What outcome does the record of this test show for "O=C(NC(=S)Nc1ccccn1)c1ccccc1" ?
inactive

What outcome does the record of this test show for "O=C(O)c1ccccc1.[Ag]" ?
inactive

What outcome does the record of this test show for "S=C1SCN(CCc2ccccc2)CN1CCc1ccccc1" ?
inactive

---

# Tested on: OVCAR-4 ovarian
# assayOverview: NCI-60 one-dose screen, 48 h (100 = growth as untreated, 0 = no growth, -100 = all killed)
# conditionContext: 10 µM
About 83,000 compounds went through this panel and 20% of them were active in at least one assay; those are over-represented in the sample as a whole.
Overview of reported growth across a group of compounds:
Your answer should be a plain number; it is taken to be in %.

Use the examples below as a reference point.
Cc1cc(O)c2c(c1O)C(=O)C13C(=C2O)C(=O)C2C(O)C1C1C(O)C3C(=O)C3=C(O)c4c(O)cc(C)c(O)c4C(=O)C321 (centres undefined): 27.8
CN(C)c1ccc(/C=C/c2ccnc3ccccc23)cc1N: 58.2
COc1cc(N)ccc1Nc1c2ccccc2nc2ccccc12: 5.09
NCc1c(O)ccc2ccccc12: 111
O=C1C=CC(=O)N1c1ccc(N2C(=O)C=CC2=O)cc1: 101

So what growth did "CCC(C)(c1ccc(O)c(C)c1)c1ccc(O)c(C)c1" get with OVCAR-4 ovarian?
91.9

So what growth did "Cc1cc(N=C2C=CC(=[N+](C)C)C=C2)c(N)cc1N" get with OVCAR-4 ovarian?
82.3

So what growth did "O=[N+]([O-])c1cc(S(=O)(=O)Nc2ccccc2)ccc1Cl" get with OVCAR-4 ovarian?
97

So what growth did "COc1ccc2c(c1)[nH]c1c(/C=C/c3ccccc3)nccc12" get with OVCAR-4 ovarian?
21.4

So what growth did "COc1ccc2oc(-c3ccc(Cl)cc3)c(N3CCN(C)CC3)c2c1" get with OVCAR-4 ovarian?
78.2
